System: A. baumannii A472
Assay: MIC without and with sub-inhibitory polymyxin B (Example 4)
Type: cell-based, Acinetobacter baumannii
Details: Acinetobacter baumannii, A472, read-out: MIC +[…] PB, A. baumannii A472; +[…] polymyxin B; 1st experiment
reported property: MIC

[
  {
    "cpd smiles": "C[C@@H](O)[C@H]1C(=O)N2C(C(=O)O)=C(S[C@@H]3CN[C@H](C(=O)N(C)C)C3)[C@H](C)[C@H]12",
    "experimental target": "A. baumannii A472",
    "measurement": "≤ 0.125 µg/mL"
  },
  {
    "cpd smiles": "Cc1c(-c2cc(F)c(N)cc2F)ccn2c(=O)c(C(=O)O)cc(C3CC3)c12",
    "experimental target": "A. baumannii A472",
    "measurement": "≤ 0.03 µg/mL"
  },
  {
    "cpd smiles": "Cc1c(-c2ccc(N)cc2)ccn2c(=O)c(C(=O)O)cc(C3CC3)c12",
    "experimental target": "A. baumannii A472",
    "measurement": "≤ 0.03 µg/mL"
  },
  {
    "cpd smiles": "Cc1c(-c2ccc(N)cc2)c(F)cn2c(=O)c(C(=O)O)cc(C3CC3)c12",
    "experimental target": "A. baumannii A472",
    "measurement": "≤ 0.03 µg/mL"
  },
  {
    "cpd smiles": "Cc1c(-c2ccc(N)c(F)c2)c(F)cn2c(=O)c(C(=O)O)cc(C3CC3)c12",
    "experimental target": "A. baumannii A472",
    "measurement": "≤ 0.03 µg/mL"
  },
  {
    "cpd smiles": "Cc1c(-c2ccc(N)c(F)c2)ccn2c(=O)c(C(=O)O)cc(C3CC3)c12",
    "experimental target": "A. baumannii A472",
    "measurement": "≤ 0.03 µg/mL"
  }
]
